The measurements presented in this section are drawn from patent US20240158446A1.

target: GDP-bound KRAS wild-type protein (Homo sapiens, UniProt P01116); assay: Binding to KRAS by surface plasmon resonance (SPR), Single Cycle Kinetics; details: SPR Single Cycle Kinetics, GDP-bound KRAS wild-type protein, 1:1 binding model; read-out: KRAS KD
Sequence (P01116 whole entry): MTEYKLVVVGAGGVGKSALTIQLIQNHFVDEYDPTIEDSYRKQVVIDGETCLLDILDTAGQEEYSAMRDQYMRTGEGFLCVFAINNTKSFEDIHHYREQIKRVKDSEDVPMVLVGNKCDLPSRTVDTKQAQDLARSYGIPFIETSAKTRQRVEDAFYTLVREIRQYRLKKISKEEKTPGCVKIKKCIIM
*1 amine or outer side, *2 acyl side, *3 side chain or, on linkers, in order; H or OH if unused. Where a SMILES comes first, the peptide text is derived from it. Bridges are numbered along the chain shown (N, C = ends). [ ]: non-standard residue; d: D form. The star is where a group is joined. hPhe(3-Cl-4-CF3) = N[C@@H](CCc1ccc(C(F)(F)F)c(Cl)c1)C(=O)O; X42 = Cc1ccc(C[C@@H](C(=O)[*:2])N(CC2CCC2)[*:1])cc1; NMeGly(cPent) = CN[C@H](C(=O)O)C1CCCC1; NMeD = CN[C@@H](CC(=O)O)C(=O)O; NMeL = CN[C@@H](CC(C)C)C(=O)O; Morpholide = C1CN(*)CCO1; NMeA = CN[C@@H](C)C(=O)O; Ac5c = NC1(C(=O)O)CCCC1; Aze = O=C(O)[C@@H]1CCN1; Sar = CNCC(=O)O
Parameter: Kd (nM)
Numeric answer only, unit nM assumed.

query: Look up Kd: CC[C@H](C)[C@@H]1NC(=O)[C@H](CC(C)C)N(C)C(=O)C[C@@H](C(=O)N2CCOCC2)N(C)C(=O)[C@H](C2CCCC2)N(C)C(=O)C2(CCCC2)NC(=O)[C@@H]2CCCN2C(=O)[C@H](CCc2ccc(C(F)(F)F)c(Cl)c2)NC(=O)CN(C)C(=O)[C@H](Cc2ccc(C)cc2)N(CC2CCC2)C(=O)[C@@H]2CCN2C(=O)[C@H](C)N(C)C1=O [PP0083] ([NMeL]I[NMeA][Aze][X42][Sar][hPhe(3-Cl-4-CF3)]P[Ac5c][NMeGly(cPent)][NMeD]-Morpholide; lactam N-11)
result: 1.1

* * *

target: GDP-bound KRAS wild-type protein (Homo sapiens); experiment: Binding to KRAS by surface plasmon resonance (SPR), Single Cycle Kinetics; details: SPR, Single Cycle Kinetics, GDP-bound KRAS wild-type protein; read-out: KRAS KD
Parameter: pKd
As a rule, pKd stands for the negative log10 of the concentration, concentration in M.

The following molecules have reported results that may help.
{"columns": ["Smiles Notation", "Assay Target", "Parameter", "Reported"],
 "data": [
  ["CCCO[C@H](C)[C@@H]1NC(=O)[C@H](COCC)N(C)C(=O)C[C@@H](C(=O)N(C)CC)N(C)C(=O)[C@H](C2CCCC2)N(C)C(=O)C2(CC(C)(C)C2)NC(=O)[C@@H]2C[C@@H](OCC)CN2C(=O)[C@H](CCc2cc(F)c(C(F)(F)F)c(F)c2)NC(=O)CN(C)C(=O)[C@H](Cc2ccc(C)cc2)N2CC/C=C\\C[C@@H](C2=O)N(C)C(=O)[C@@H]2CCCN2C1=O", "GDP-bound KRAS wild-type protein (Homo sapiens)", "pKd", 8.80],
  ["CCO[C@H](C)[C@@H]1NC(=O)[C@H](CC(C)C)N(C)C(=O)C[C@@H](C(=O)N(C)CC)N(C)C(=O)[C@H](C2CCCC2)N(C)C(=O)C2(CC(C)(C)C2)NC(=O)[C@@H]2C[C@H](C)CN2C(=O)[C@H](CCc2ccc(C(F)(F)F)c(OC)c2)NC(=O)CN(C)C(=O)[C@H](Cc2ccc(C)cc2)N2CC/C=C\\C[C@@H](C2=O)N(C)C(=O)CN(C)C1=O", "GDP-bound KRAS wild-type protein (Homo sapiens)", "pKd", 9.60],
  ["CCO[C@@H]1C[C@H]2C(=O)NC3(CCC3)C(=O)N(C)[C@@H](C3CCCC3)C(=O)N(C)[C@H](C(=O)N(C)C)CC(=O)N(C)[C@@H](Cc3ccc(F)cc3)C(=O)N[C@@H]([C@@H](C)CC)C(=O)N(C)CC(=O)N(C)[C@H]3CCCCCN(C3=O)[C@@H](Cc3ccc(C(F)(F)F)cc3)C(=O)N(C)CC(=O)N[C@@H](CCc3cc(F)c(C(F)(F)F)c(F)c3)C(=O)N2C1", "GDP-bound KRAS wild-type protein (Homo sapiens)", "pKd", 9.38],
  ["CC[C@H](C)[C@@H]1NC(=O)[C@H](CC(C)C)N(C)C(=O)C[C@@H](C(=O)N2CCOCC2)N(CC)C(=O)[C@H](C2CCCC2)N(C)C(=O)C2(CCC2)NC(=O)[C@@H]2[C@H](O)CCN2C(=O)[C@H](CCc2cc(F)c(C(F)(F)F)c(F)c2)NC(=O)CN(C)C(=O)[C@H](Cc2ccc(C(F)(F)F)cc2)N2CCCCC[C@@H](C2=O)N(C)C(=O)CN(C)C1=O", "GDP-bound KRAS wild-type protein (Homo sapiens)", "pKd", 7.72],
  ["CCOC[C@H]1C(=O)N[C@@H]([C@@H](C)CC)C(=O)N(C)CC(=O)N(C)[C@H]2C/C=C\\CCN(C2=O)[C@@H](Cc2ccc(C)cc2)C(=O)N(C)CC(=O)N[C@@H](CCc2ccc(C(F)(F)F)c(Cl)c2)C(=O)N2C[C@@H](C)C[C@H]2C(=O)NC2(CC(C)(C)C2)C(=O)N(C)[C@@H](C2CCCC2)C(=O)N(C)[C@H](C(=O)N(C)CC)CC(=O)N1C", "GDP-bound KRAS wild-type protein (Homo sapiens)", "pKd", 9.77]
]}

Then there is this molecule:
query: Please report the recorded pKd for CCO[C@@H]1C[C@H]2C(=O)NC3(CCC3)C(=O)N(C)[C@@H](C3CCCC3)C(=O)N(C)[C@H](C(=O)N3CCOCC3)CC(=O)N(C)[C@@H](Cc3ccsc3)C(=O)N[C@@H]([C@@H](C)CC)C(=O)N(C)CC(=O)N(C)[C@H]3CCCCCN(C3=O)[C@@H](Cc3ccc(F)cc3)C(=O)N(C)CC(=O)N[C@@H](CCc3cc(F)c(C(F)(F)F)c(F)c3)C(=O)N2C1 .
result: 9.80

* * *

biological target: GDP-bound KRAS wild-type protein (Homo sapiens); experiment: Binding to KRAS by surface plasmon resonance (SPR), Single Cycle Kinetics; settings: SPR, Single Cycle Kinetics, GDP-bound KRAS wild-type protein; read-out: KRAS KD
# Kd per entry
Numbers only; they are read as nM.

{"columns": ["Smiles Notation", "Parameter", "Reported"],
 "data": [
  ["CCO[C@@H]1C[C@H]2C(=O)NC3(CCC3)C(=O)N(C)[C@@H](C3CCCC3)C(=O)N(C)[C@H](C(=O)N3CCOCC3)CC(=O)N(C)[C@@H](Cc3ccc(C#N)cc3)C(=O)N[C@@H]([C@@H](C)CC)C(=O)N(C)CC(=O)N(C)[C@H]3CCCCCN(C3=O)[C@@H](Cc3ccc(C(F)(F)F)cc3)C(=O)N(C)CC(=O)N[C@@H](CCc3cc(F)c(C(F)(F)F)c(F)c3)C(=O)N2C1", "Kd", 0.5],
  ["CCC[C@H]1C(=O)N[C@@H]([C@@H](C)CC)C(=O)N(C2CC2)CC(=O)N(C)[C@H]2C/C=C\\CCN(C2=O)[C@@H](Cc2ccc(C)cc2)C(=O)N(C)CC(=O)N[C@@H](CCc2ccc(C(F)(F)F)c(OC)c2)C(=O)N2C[C@@H](C)C[C@H]2C(=O)N(C)C2(CCC2)C(=O)N(C)[C@@H](C2CCCC2)C(=O)N(C)[C@H](C(=O)N(C)C)CC(=O)N1C", "Kd", 0.048]
]}

Alright, here's another compound for you.
query: Under GDP-bound KRAS wild-type protein (Homo sapiens): Kd value of CCO[C@@H]1C[C@H]2C(=O)NC3(CCC3)C(=O)N(C)[C@@H](C3CCCC3)C(=O)N(C)[C@H](C(=O)N(C)C)CC(=O)N(C)[C@@H](CCC(=O)N(C)C)C(=O)N[C@@H]([C@@H](C)CC)C(=O)N(C)CC(=O)N(C)[C@H]3C/C=C\CCN(C3=O)[C@@H](Cc3ccc(C(F)(F)F)cc3)C(=O)N(C)CC(=O)N[C@@H](CCc3cc(F)c(C(F)(F)F)c(F)c3)C(=O)N2C1 ?
result: 0.047
